- study_system: mouse CD22 (Mus musculus, UniProt P35329)
- Construct: made in house
- Sequence (P35329 with tags, fused parts or gaps limits assumed): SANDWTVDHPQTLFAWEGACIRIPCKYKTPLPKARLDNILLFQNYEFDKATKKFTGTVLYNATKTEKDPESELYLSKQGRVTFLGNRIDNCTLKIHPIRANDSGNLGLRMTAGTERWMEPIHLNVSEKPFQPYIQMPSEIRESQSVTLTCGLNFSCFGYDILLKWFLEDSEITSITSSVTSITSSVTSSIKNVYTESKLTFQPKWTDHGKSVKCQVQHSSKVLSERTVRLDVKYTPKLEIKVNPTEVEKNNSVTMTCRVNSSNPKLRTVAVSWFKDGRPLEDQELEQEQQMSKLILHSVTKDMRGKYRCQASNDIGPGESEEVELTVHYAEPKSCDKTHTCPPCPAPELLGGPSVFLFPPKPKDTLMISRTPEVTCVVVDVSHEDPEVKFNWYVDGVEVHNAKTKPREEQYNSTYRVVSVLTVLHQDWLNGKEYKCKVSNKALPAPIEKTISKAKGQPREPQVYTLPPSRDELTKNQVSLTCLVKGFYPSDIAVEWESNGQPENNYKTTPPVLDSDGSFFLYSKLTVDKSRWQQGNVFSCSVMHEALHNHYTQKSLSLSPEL
- experiment: ELISA inhibition assay: CD22-Fc chimera binding to immobilized NeuGc-LN
- assay_setup: relative to NeuGc-LN = 1
experimental_endpoint: rIP mCd22 (relative inhibitory potency)
Please reply with the number alone, leaving off any unit.

>  <compound>
CC(=O)NC1C(O)CC(O)(C(=O)O)OC1C(O)C(O)CNC(=O)c1ccc(-c2ccccc2)cc1 (stereo not shown)

>  <study_system>
mouse CD22 (Mus musculus, UniProt P35329)

>  <rIP mCd22 (relative inhibitory potency)>
0.15

$$$$

# context switch: different compound, same rIP mCd22 (relative inhibitory potency)
Ask | Would you kindly share the measured rIP mCd22 (relative inhibitory potency) for CC(=O)NC1C(O)OC(CO)C(OC2OC(COC3(C(=O)O)CC(O)C(NC(=O)CO)C(C(O)C(O)CO)O3)C(O)C(O)C2O)C1O (stereo not shown) ?
Reply | 1

* * *

- study_system: human CD22 (Homo sapiens)
- Construct: made in house
- Sequence (P20273 with tags, fused parts or gaps limits assumed): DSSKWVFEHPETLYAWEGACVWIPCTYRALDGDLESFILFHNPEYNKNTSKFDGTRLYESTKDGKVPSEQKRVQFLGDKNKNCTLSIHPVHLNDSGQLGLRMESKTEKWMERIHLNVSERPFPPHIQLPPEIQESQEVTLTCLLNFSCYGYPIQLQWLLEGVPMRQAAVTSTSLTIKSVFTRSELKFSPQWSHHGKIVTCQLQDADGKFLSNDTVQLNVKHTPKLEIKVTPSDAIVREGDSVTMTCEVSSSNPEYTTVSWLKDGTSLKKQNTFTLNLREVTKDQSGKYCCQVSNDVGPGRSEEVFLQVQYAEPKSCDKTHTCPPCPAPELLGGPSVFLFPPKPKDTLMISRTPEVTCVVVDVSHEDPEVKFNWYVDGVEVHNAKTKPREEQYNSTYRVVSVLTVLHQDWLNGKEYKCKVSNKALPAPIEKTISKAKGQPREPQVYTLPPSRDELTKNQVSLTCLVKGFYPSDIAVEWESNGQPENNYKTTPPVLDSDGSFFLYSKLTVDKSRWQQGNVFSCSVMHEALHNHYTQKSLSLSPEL
- experiment: ELISA inhibition assay: CD22-Fc chimera binding to immobilized NeuAc-LN
- assay_setup: relative to NeuAc-LN = 1
rIP hCd22 (relative inhibitory potency) values for the molecules below.
Please reply with the number alone, leaving off any unit.

>  <molecule>
CC(=O)NC1C(O)OC(CO)C(OC2OC(COC3(C(=O)O)CC(O)C(NC(=O)CO)C(C(O)C(O)CO)O3)C(O)C(O)C2O)C1O (stereo not shown)

>  <experimental_endpoint>
rIP hCd22 (relative inhibitory potency)

>  <reading>
0.85

$$$$

Ask | Would you kindly share the measured rIP hCd22 (relative inhibitory potency) for CC(=O)NC1C(O)CC(O)(C(=O)O)OC1C(O)C(O)CNC(=O)c1ccc(-c2ccccc2)cc1 (stereo not shown) ?
Reply | 6.3

Ask | Can you handle CC(=O)N[C@@H]1[C@@H](O)[C@H](O[C@@H]2O[C@H](CO[C@]3(C(=O)O)C[C@H](O)[C@@H](NC(C)=O)[C@H]([C@H](O)[C@H](O)CO)O3)[C@H](O)[C@H](O)[C@H]2O)[C@@H](CO)O[C@H]1O next?
Reply | 1
